# System: UO-31 renal
# Test method notes: NCI-60 one-dose screen, 48 h
# Experimental setup: 10 µM unless noted
About 83,000 compounds went through this panel and 20% of them were active in at least one assay; those are over-represented in the sample as a whole. Activity calls are given as the source filed them. How the source made its calls: active means growth percent below 10; inactive means the rest.
Pick one and only one: active, inactive

Study these solved cases before continuing.
structure_notation=O=C(/C=C/c1cccc(O)c1)c1cccc(-n2cc(-c3ccc4ccccc4c3)[nH]c2=O)c1 class_assignment=inactive
structure_notation=O=C(Nc1cccc(C(F)(F)F)c1)Nc1cccc(C(F)(F)F)c1 class_assignment=active
structure_notation=CCCCCCCCCCN(CCCCCCCCCC)CC(=O)c1ccc2cc(Br)c3ccccc3c2c1 class_assignment=active
structure_notation=O=C(N=c1oc2ccccc2cc1-c1cc2ccccc2[nH]1)c1ccc(Cl)cc1 class_assignment=inactive

Now look at this entry.
Check the results log: what was the call for `CC(C)=C[C@@H]1c2c(c3ccccc3n(C)c2=O)O[C@H]2c3c(c4ccccc4n(C)c3=O)OC(C)(C)[C@@H]12` ? inactive

====

# System: PC-3 prostate
# Test method notes: NCI-60 one-dose screen, 48 h
# Experimental setup: 10 µM unless noted
Compounds without any hit were thinned out: in the full panel of roughly 83,000, 20% have a hit. The source made the active and inactive calls. Rule for the calls: active = growth percent below 10; inactive = the rest.
Reply using exactly one outcome from active, inactive

compound=COc1cccc(-c2nn(-c3ccccc3)cc2-c2ccnc(NCCNC(=O)c3ccccc3)c2)c1 class_assignment=inactive
compound=O=C(NCCCNc1cc(-c2cn(-c3ccccc3)nc2-c2cccc(O)c2)ccn1)c1ccccc1 class_assignment=inactive
compound=N#Cc1nc2c(S(=O)(=O)c3ccc(Cl)cc3)c(N)n(Nc3cccc(Cl)c3)c2nc1C#N class_assignment=active
compound=COC(=O)c1c2c(c(C)[n+]([O-])c1C)C(=O)C(NCc1ccc(F)c(Cl)c1)=CC2=O class_assignment=active

Below: the item to evaluate.
Would you mind telling me which call this test gave CCCCOc1nc2ccccc2cc1C1CNC(=O)c2ccccc2N1 (stereo unspecified) ? inactive

====

# System: TK-10 renal
# Test method notes: NCI-60 one-dose screen, 48 h (100 = growth as untreated, 0 = no growth, -100 = all killed)
# Experimental setup: 10 µM unless noted
The panel holds about 83,000 compounds, 20% with a hit somewhere; the sample as a whole holds those more often.
Each entry below carries its reported growth.
Provide the reading as a plain figure in %.

Consider the molecule `COc1cc(C(=O)c2cc(C)c3[nH]c4ccc(Cl)cc4c3c2C)cc(OC)c1OC` and give its measured growth. 87.5

====

# System: SNB-19 CNS
# Test method notes: NCI-60 one-dose screen, 48 h (100 = growth as untreated, 0 = no growth, -100 = all killed)
# Experimental setup: 10 µM unless noted
This is part of a sample that, as a whole, favours compounds with a hit. Of some 83,000 tested, about 20% had one in any assay.
Quantity name: growth (%)
Expressed in %, but write only the number.

Here's what some known entries look like.
compound="COc1ccc(CNC(=O)C(O)C(Cc2ccccc2)NC(=O)c2[nH]c3ccccc3c(=O)c2C)cc1OC (stereo unspecified)" value_observed=100
compound=COc1ccc2c(c1)CCCN2c1c2ccccc2nc2ccccc12 value_observed=34.6
compound="COc1ccc(/C=N/C2=C(C#N)C(c3ccc(OC)cc3)c3ccc4ccccc4c3O2)cc1 (stereo unspecified)" value_observed=80

Next up:
What value of growth has been recorded for this entry: CC(C)(C)C(CCc1ccc(Cl)cc1)N1CCN(C2CCCCC2)CC1 (stereo unspecified) 70.6
